B1: CCNC (parent)
chain: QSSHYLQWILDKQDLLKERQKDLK

- Variants of: B1
- test_summary: protein stability index of a GFP-peptide fusion (GPS, HEK-293T) (PSI 1-6); higher = more stable;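 also: lentivirally expressed fusions sorted by FACS into six bins by GFP to DsRed ratio, PSI derived from sequencing read proportions per bin multiplied by bin number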
- assay_setup: c terminus: a fixed tail appended
Rule: protein stability index under 3 gives Condition not met, otherwise Condition met.

Example entries and their recorded answers appear below.
>  <monomer_sequence>
QDSHYLQWILDKQDLLKERQKDLK [S2D]

>  <answer_label>
Condition met

$$$$
>  <monomer_sequence>
QSSHYLQWILDKQDLLKWRQKDLK [E18W]

>  <answer_label>
Condition not met

$$$$
>  <monomer_sequence>
QSSHYLQWILDKQDLMKERQKDLK [L16M]

>  <answer_label>
Condition not met

$$$$
>  <monomer_sequence>
QYSHYLQWILDKQDLLKERQKDLK [S2Y]

>  <answer_label>
Condition not met

$$$$
>  <monomer_sequence>
QSSHYLQWILDKQDPLKERQKDLK [L15P]

>  <answer_label>
Condition met

$$$$
>  <monomer_sequence>
QSSHYLQWILDFQDLLKERQKDLK [K12F]

>  <answer_label>
Condition not met

$$$$

Problem: Determine whether measured protein stability index meets or exceeds 3 for QSSHYLQWILDKQDLLKERNKDLK [Q20N]
Result: Condition met

Problem: Determine whether measured protein stability index meets or exceeds 3 for QSSHYLQWILDKCDLLKERQKDLK [Q13C]
Result: Condition met

Problem: Determine whether measured protein stability index meets or exceeds 3 for QSSHYLQWILDKQDLLKEKQKDLK [R19K]
Result: Condition met

Problem: Determine whether measured protein stability index meets or exceeds 3 for QSSHYLQWILDKQDLLKERQKDLE [K24E]
Result: Condition met

Problem: Determine whether measured protein stability index meets or exceeds 3 for QSSHYLQCILDKQDLLKERQKDLK [W8C]
Result: Condition met

Problem: Determine whether measured protein stability index meets or exceeds 3 for QSSHYLQWILDKQDLVKERQKDLK [L16V]
Result: Condition met
